test: StAR promoter reporter inhibitors, counter-screen for LRH-1 inverse agonist project, cell-based, luminescence, high throughput (AID 651611); conditions: StAR promoter luciferase reporter counterscreen, at 3.6 µM
The source made the active and inactive calls. Cut-off read from the data, not from the text of the source: active = inhibition above about 28%; inactive = the rest.
Your reply should match one of these outcome classes. active, inactive

Req: In this assay, the call recorded for `O=C(N/N=C/c1ccc([N+](=O)[O-])o1)c1ccc2c(c1)OCO2` was what?
Resp: active

Req: Dear colleague, could you share the recorded outcome for `CCc1cc(=O)oc2cc(C)cc(OCC(=O)NC3CC3)c12` when you have a moment?
Resp: inactive

Req: Please share the test call associated with `COc1ccc(NC(=O)COC(=O)/C=C/C(=O)OCC(=O)Nc2ccc(OC)c(Cl)c2)cc1Cl` .
Resp: inactive

Req: Could you please tell me the result logged for `CC(=O)Nc1ccc(NC(=O)CSc2nnnn2C2CCCCC2)cc1` in this assay?
Resp: inactive

Req: Call for entry `Nc1ccc(Nc2ccncc2[N+](=O)[O-])cc1` :
Resp: inactive

Req: Tell me the recorded outcome of this test for `O=C(CCl)NCCN1C(=O)S/C(=C\c2cccnc2)C1=O` .
Resp: inactive

====

biological target: Nuclear receptor coactivator 3 (Homo sapiens) (UniProt Q9Y6Q9); assay: SRC3 coactivator transcriptional activity inhibitors, confirmation, cell-based, luminescence, quadruplicate (AID 588792); details: HEK293 GAL4-SRC3 luciferase reporter, at 3.6 µM;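 note: 0% = DMSO treated cells and 100% = gossypol at 36 µM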
Sequence (Q9Y6Q9 whole entry, looked up, the tested form may be a part): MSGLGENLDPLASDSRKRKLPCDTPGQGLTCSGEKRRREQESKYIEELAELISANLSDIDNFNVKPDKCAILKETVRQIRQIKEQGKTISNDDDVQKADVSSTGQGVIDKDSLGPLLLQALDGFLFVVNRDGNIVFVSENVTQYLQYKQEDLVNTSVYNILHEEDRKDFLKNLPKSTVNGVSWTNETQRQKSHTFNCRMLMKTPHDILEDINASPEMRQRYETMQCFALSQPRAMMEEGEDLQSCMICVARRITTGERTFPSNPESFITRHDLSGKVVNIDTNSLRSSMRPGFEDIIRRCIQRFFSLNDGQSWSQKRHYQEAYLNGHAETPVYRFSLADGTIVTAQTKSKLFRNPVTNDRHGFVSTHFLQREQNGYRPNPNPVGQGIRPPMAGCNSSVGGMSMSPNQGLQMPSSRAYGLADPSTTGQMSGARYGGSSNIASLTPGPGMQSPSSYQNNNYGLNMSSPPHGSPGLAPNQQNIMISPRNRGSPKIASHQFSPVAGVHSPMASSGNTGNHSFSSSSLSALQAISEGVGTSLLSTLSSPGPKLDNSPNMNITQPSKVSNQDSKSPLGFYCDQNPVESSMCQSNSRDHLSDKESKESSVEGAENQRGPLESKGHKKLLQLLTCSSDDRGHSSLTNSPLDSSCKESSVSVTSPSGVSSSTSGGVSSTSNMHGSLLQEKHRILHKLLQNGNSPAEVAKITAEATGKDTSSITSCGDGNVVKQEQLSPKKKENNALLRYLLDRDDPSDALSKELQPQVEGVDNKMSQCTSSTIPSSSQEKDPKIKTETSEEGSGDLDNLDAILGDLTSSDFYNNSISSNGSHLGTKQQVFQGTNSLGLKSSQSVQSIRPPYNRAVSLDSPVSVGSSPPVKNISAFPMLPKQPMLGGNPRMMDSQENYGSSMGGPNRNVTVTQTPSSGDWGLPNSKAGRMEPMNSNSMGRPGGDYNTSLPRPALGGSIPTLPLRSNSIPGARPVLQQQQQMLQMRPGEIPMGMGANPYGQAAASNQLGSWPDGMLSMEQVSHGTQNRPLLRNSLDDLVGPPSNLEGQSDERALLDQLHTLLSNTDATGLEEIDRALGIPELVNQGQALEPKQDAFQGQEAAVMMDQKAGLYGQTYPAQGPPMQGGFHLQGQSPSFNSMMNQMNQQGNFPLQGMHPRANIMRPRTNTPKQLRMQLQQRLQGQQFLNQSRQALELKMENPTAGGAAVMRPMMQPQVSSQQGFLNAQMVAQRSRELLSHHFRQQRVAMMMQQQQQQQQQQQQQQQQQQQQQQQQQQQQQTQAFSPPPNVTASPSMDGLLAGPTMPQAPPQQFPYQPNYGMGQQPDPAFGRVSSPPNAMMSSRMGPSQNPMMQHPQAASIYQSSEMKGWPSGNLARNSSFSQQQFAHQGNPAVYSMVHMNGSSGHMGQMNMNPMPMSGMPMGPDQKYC
The source made the active and inactive calls.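 Rule for the calls: active = mean inhibition over 43.08%, the solvent-only control mean plus 3 SD; inactive = the rest.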
Outcome field: choose from active, inactive

Req: How was `COc1ccc(OCC(=O)N/N=C/c2ccc(O[C@@H]3O[C@H](CO)[C@@H](O)[C@H](O)[C@H]3O)cc2)cc1` classified in this test?
Resp: inactive

Req: What classification did `Cc1cc(C)c2nc(C(F)(F)F)c(C#N)c(N)c2c1` end up with in this test?
Resp: active

====

tested on: transactivating tegument protein VP16 (Human herpesvirus 1), Gal4-VP16 luciferase reporter; assay: VP16 transactivation inhibitors, counter-screen for SRC3 inhibitor project, cell-based, luminescence, high throughput (AID 588794); settings: mammalian cells, VP16-driven luciferase reporter luminescence; at 3.6 µM; stronger effect = higher value
Rule: inhibition under 20% gives no, otherwise yes.

> print(dat)
                                   compound  group
1  O=[N+]([O-])c1ccc(Oc2ccc(F)cc2)c2ccncc12    yes
2  CC[n+]1c(/C=C2\Sc3ccccc3N2C)ccc2cccc(C)c21    yes

Req: Evaluate `COc1ccc(C(=O)Nc2c(-c3cccs3)c(=O)c3ccccc3n2C)cc1` : inhibition at minimum 20%?
Resp: no

Req: # bool: inhibition of `CCN(CC)CCCNc1nc2ccccc2c2nc(-c3ccncc3)nn12` >= 20%
Resp: yes

Req: # bool: inhibition of `C[C@@H]1C[C@@H]2O[C@H]2/C=C\C=C\C(=O)Cc2c(Cl)c(O)cc(O)c2C(=O)O1` >= 20%
Resp: yes

Req: Determine whether measured inhibition meets or exceeds 20% for `CCC(=O)Nc1cccc(C(=O)/C=C/c2cc(Br)ccc2OC)c1`
Resp: yes

Req: # bool: inhibition of `c1cc2[nH]snc2c2nc(C3CC3)nc12` >= 20%
Resp: no

Req: Please indicate if the recorded inhibition for `COc1cccc(CNc2ncnc3ccc(-c4c(C)noc4C)cc23)c1` meets or exceeds 20%.
Resp: no

Req: Threshold query (inhibition >= 20%) on `c1cc2c(cc1C1=NNC(=NC3CC3)SC1)OCCO2`
Resp: yes

====

target: Nuclear receptor coactivator 2 (Homo sapiens) (UniProt Q15596); test: SRC2 coactivator transcriptional activity inhibitors, confirmation, cell-based, luminescence, HEK293, triplicate (AID 652008); settings: HEK293 GAL4-SRC2 luciferase reporter, at 8.9 µM;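 note: 0% = DMSO-treated cells and 100% = Gossypol at 36 µM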
Sequence (Q15596 whole entry, looked up, the tested form may be a part): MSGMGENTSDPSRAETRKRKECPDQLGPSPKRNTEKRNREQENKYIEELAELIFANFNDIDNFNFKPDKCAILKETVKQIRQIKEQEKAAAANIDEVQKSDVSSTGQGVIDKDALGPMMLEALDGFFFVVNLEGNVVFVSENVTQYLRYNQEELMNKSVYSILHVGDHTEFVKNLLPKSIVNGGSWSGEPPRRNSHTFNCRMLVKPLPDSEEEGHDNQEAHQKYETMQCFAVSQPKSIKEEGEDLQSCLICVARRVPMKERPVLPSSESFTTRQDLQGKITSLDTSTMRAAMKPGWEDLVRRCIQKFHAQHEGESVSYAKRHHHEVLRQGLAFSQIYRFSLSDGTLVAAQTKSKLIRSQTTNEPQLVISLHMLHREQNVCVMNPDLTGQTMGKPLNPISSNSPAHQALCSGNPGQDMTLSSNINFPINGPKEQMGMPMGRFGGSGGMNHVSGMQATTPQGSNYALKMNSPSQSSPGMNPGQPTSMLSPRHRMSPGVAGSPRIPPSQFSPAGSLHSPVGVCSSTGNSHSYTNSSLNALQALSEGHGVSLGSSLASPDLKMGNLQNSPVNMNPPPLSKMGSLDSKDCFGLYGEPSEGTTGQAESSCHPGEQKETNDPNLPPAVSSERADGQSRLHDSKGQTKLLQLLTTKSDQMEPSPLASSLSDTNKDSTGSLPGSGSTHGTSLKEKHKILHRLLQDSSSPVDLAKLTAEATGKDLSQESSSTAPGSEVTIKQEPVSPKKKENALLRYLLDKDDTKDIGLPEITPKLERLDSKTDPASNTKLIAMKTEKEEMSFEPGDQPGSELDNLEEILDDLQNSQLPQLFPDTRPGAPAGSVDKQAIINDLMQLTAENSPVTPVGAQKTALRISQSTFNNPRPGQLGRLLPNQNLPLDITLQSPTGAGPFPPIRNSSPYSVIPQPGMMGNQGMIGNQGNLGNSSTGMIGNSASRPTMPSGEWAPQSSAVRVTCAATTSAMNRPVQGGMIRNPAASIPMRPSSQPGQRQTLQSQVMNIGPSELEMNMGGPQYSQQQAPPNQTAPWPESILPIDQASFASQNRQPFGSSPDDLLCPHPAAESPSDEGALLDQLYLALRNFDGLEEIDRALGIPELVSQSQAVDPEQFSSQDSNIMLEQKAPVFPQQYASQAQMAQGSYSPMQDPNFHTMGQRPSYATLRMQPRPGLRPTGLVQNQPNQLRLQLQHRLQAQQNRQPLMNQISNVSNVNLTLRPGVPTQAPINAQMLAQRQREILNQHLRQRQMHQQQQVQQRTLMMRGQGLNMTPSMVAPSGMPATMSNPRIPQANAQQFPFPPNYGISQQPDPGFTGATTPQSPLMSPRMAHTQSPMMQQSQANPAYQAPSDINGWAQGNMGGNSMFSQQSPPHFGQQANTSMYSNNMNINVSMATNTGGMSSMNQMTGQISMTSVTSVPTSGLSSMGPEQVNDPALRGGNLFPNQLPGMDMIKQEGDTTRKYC
Activity calls are given as the source filed them.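 The calls were made as follows: active = mean inhibition above 46.5%, the solvent-only control mean plus 3 SD; inactive = the rest.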
Pick one: true = active, false = inactive

These solved cases illustrate the format of a correct answer.
> print(dat)
                                   molecule                              study.system  group
1  CCc1ccc(-c2nc(CS(=O)CC(=O)NCc3ccccc3)c(C)o2)cc1 (stereo not given)  Nuclear receptor coactivator 2 (Homo sapiens) (UniProt Q15596)   true
2  C=CCOc1ccc(/C=C2\SC(=S)N(CCC(=O)O)C2=O)cc1  Nuclear receptor coactivator 2 (Homo sapiens) (UniProt Q15596)   true

Req: Look up the recorded call for `Cc1nnc(NC(=O)c2nc(S(=O)(=O)Cc3ccccc3)ncc2Cl)s1` in this test.
Resp: false

Req: I'd appreciate the recorded outcome for `O=C(NN1CCOCC1)c1ccco1` from this test.
Resp: false

Req: # lookup: test call for `CN1/C(=C/C=C/c2n(C)c3cc([N+](=O)[O-])c([N+](=O)[O-])cc3[n+]2C)C(C)(C)c2ccccc21`
Resp: false

====

assay: StAR promoter reporter inhibitors, counter-screen for LRH-1 inverse agonist project, cell-based, luminescence, high throughput (AID 651611); settings: StAR promoter luciferase reporter counterscreen, at 3.6 µM, stronger effect = higher value
Class key for inhibition values: 0 = under 10%, 1 = from 10% up to 30%, 2 = 30% and over

> print(dat)
                                    compound  group
 1  Cc1cc(/C=N/n2cnnc2)c(C)n1-c1ccc(OCc2ccc(Cl)cc2)cc1      0
 2              N#Cc1sc2nccc(Nc3ccccc3)c2c1N      2
 3  CC(=O)/C(=N/Nc1ccccc1[N+](=O)[O-])N1CCCc2ccccc21      1
 4  CC1(C(=O)NCc2ccco2)Cc2c(-c3ccccc3)ccnc2O1 (stereo unspecified)      2
 5  CC(C)NC(=O)N1Cc2cc(C(=O)NC3CCCC3)nc(-c3cccc(-c4cccnc4)c3)c2[C@@H]1CCO      1
 6  Cc1ccc(-c2nn3c(C)nnc3s2)cc1NC(=O)c1ccco1      0
 7  CC(C)(C)c1ccc(C2CC2C(=O)N/N=C\c2ccc[nH]2)cc1 (stereo unspecified)      2
 8       Cc1ccccc1Nc1nc(-c2cccnc2)nc2ccccc12      0
 9  Cc1cc2c(=Cc3ccc(N(C)C)cc3)c3ccccc3n2[n+]1C      2
10       Cc1ccc(S(=O)(=O)Nc2ccc3ncccc3c2)cc1      1

Now let's try a different one.
Req: Which bin should I file `COc1ccc(NS(=O)(=O)c2ccc3c(c2)OCCO3)cc1OC` under?
Resp: 1

====

molecular target: Nuclear receptor coactivator 1 (Homo sapiens) (UniProt Q15788); assay: SRC1 coactivator transcriptional activity inhibitors, confirmation, cell-based, luminescence, quadruplicate (AID 588820); settings: HEK293 GAL4-SRC1 luciferase reporter, at 3.6 µM, stronger effect = higher value;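 note: 0% = DMSO wells and 100% = gossypol 36 µM treated wells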
Sequence (Q15788 whole entry, looked up, the tested form may be a part): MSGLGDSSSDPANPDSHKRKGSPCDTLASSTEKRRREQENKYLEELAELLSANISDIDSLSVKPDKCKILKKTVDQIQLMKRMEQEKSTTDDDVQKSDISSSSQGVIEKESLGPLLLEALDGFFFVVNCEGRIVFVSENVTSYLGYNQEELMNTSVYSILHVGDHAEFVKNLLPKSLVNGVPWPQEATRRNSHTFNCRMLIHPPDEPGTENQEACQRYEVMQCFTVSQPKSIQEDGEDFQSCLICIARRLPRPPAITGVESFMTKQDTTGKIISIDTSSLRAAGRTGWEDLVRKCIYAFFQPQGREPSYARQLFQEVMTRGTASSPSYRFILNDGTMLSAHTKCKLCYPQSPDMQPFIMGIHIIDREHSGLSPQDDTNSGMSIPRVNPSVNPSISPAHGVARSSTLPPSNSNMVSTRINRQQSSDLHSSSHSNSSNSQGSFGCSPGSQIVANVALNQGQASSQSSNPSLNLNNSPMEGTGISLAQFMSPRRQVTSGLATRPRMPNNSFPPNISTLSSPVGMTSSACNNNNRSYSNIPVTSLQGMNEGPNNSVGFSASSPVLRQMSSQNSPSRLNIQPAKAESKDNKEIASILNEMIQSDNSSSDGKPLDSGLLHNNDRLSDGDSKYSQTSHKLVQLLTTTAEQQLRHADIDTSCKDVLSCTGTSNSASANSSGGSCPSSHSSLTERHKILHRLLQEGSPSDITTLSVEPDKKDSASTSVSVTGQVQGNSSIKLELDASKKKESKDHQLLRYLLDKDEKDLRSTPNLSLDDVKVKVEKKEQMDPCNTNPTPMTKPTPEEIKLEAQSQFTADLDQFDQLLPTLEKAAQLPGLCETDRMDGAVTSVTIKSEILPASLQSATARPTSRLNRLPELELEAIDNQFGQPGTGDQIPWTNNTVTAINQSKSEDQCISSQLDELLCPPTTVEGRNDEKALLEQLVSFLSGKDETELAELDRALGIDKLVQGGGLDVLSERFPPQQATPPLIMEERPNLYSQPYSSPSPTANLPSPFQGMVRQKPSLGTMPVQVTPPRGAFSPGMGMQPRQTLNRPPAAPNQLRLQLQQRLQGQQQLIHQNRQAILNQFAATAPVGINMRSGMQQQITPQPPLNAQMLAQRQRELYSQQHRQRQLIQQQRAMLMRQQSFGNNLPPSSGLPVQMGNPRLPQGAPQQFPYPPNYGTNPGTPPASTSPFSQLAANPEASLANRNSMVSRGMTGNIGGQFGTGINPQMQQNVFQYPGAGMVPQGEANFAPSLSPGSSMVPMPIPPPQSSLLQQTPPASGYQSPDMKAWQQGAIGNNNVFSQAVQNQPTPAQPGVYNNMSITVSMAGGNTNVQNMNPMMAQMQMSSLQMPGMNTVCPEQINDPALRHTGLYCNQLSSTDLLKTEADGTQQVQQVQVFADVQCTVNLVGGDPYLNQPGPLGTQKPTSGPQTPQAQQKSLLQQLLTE
recorded-endpoint: inhibition (%)
Report as a plain number; the unit % is understood.

> print(dat)
                                   molecule  unit.annotation  value.reported
1  CCN(CC)c1ccc(C(=C2C=CC(=[N+](CC)CC)C=C2)c2ccccc2)cc1                %             -95

Given item `Cc1cc(OCCCN2CCCC2)ccc1Cl` , the value recorded as its inhibition is -14.7

Given item `COC(=O)c1cccc(NC(=O)CN2C(=O)c3ccccc3C2=O)c1` , the value recorded as its inhibition is -23.7

Value of inhibition reported for the molecule `CS(=O)(=O)c1ccc(C(=O)OCC(=O)NC(=O)Cc2ccccc2)cc1` is -5.88

Per the records, this molecule ( `CCCCc1ccc(NC(=O)c2ccc(N(C)S(C)(=O)=O)cc2)cc1` ) has inhibition equal to -25.4

inhibition in this record for `O=C(Cc1ccsc1)N1CCN(S(=O)(=O)c2cc(C(F)(F)F)cc(C(F)(F)F)c2)CC1` : -14.2

====

biological target: Lytic switch protein BZLF1 (Epstein-Barr virus (strain B95-8)) (UniProt P03206); assay: EBV Zta binding to ZRE DNA, inhibitors, confirmation, biochemical, fluorescence polarization, triplicate (AID 2361); conditions: at 11.1 µM, stronger effect = higher value;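 note: 0% = Zta with DMSO and 100% = wells lacking Zta protein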
Sequence (P03206 whole entry, looked up): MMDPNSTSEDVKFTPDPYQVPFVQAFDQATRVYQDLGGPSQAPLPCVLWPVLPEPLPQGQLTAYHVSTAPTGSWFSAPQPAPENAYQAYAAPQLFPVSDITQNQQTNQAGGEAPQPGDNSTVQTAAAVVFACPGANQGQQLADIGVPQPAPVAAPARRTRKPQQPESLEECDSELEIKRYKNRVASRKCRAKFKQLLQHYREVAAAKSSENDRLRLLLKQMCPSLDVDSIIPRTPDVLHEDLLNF
The other results are listed elsewhere or left out.
Given measured inhibition, output criterion met if it is greater than or equal to 50% and criterion not met if not.

Check out these entries, answers already filled in.
smiles-representation	group
CSc1nnc(SCc2nc3sc(C(=O)O)c(C)c3c(=O)[nH]2)s1	criterion met
Cn1cnc2c1c(=O)n(Cc1ccccc1C#N)c(=O)n2C	criterion not met
COc1ccc(N2CCN(C(=O)CN3C(=O)COc4ccccc43)CC2)cc1	criterion not met
CN1CCN(CCCNC(=O)c2ccc(/C=C3\Oc4ccccc4N(Cc4ccc(Cl)cc4)C3=O)cc2)CC1	criterion met

Consider the record given below.
Req: Decide: is the reported value of inhibition for `C#CCOCCOCCOCCNc1nc(N2CCN(C(=O)CCCCCCCCCCNC(=O)[C@H]([C@@H](C)CC)n3cc(CCCCN=C(N)N)nn3)CC2)nc(N2CCN(C(=O)CCCCCCCCCCNC(=O)[C@H](CO)n3cc(CCCSC)nn3)CC2)n1` equal to or greater than 50%?
Resp: criterion met
